cytotoxicity at 10 µM values by entry
# protocol: Toxicity liver stage against HepG2, at 10uM
# Assay type: cell-based
# Design: test concentration 10 uM, cell line HepG2-A16-CD81EGFP
# condition summary: human, HepG2-A16-CD81EGFP cells; read-out: INHIBITION

{"columns": ["molecule", "cytotoxicity at 10 µM, %"],
 "data": [
  ["O=C(NCCc1nnc2n1CCCCC2)N1CCC2(CCCC2)CC1", -7.94],
  ["CC(C)c1cc(NCC2(N(C)C)CCCC2)ncn1", 4.22],
  ["O=C(NCc1ccc(Br)cc1F)C1(O)CCSCC1", 6.4],
  ["Cn1c(CCN2CCN(c3ccc(O)cc3)CC2)nc2ccccc21", -37.5],
  ["Cn1cnnc1CN1CCC2(CCCN(C3CCCC3)C2=O)C1 (centres undefined)", -133],
  ["COc1cc(/C=C/c2ncc(C(=O)O)s2)cc(Cl)c1O", 4.14],
  ["CCc1ncc(CNCc2cccnc2N(C)C)cn1", -2.62],
  ["Cc1cc(OCC(=O)N2CCCC2c2noc(C)n2)no1 (centres undefined)", -11.1],
  ["CSC(C)(C)CNC(=O)NCc1cccc(-n2cncn2)c1", -14.4],
  ["O=C(CCC1CCCCC1)NS(=O)(=O)CC1CC1", -9.69],
  ["Cc1nsc(N2CCN(C(=O)Nc3cccc(C#N)c3)CC2)n1", -18.7],
  ["Cn1nccc1-c1ccc2nc(C3CCNCC3)nn2c1", 10.3],
  ["Cc1nc(C)n(C2CCCN(C(=O)c3cc(C(N)=O)cs3)C2)n1 (centres undefined)", -6.86],
  ["COCC(=O)N(C)Cc1ccc(Cl)c(Cl)c1", -5.13],
  ["Cc1cnn(CC2CCCN2CC(=O)Nc2nccs2)c1 (centres undefined)", -4.34],
  ["Cc1cccc(CN2C(=O)CCC23CCN(C(=O)c2ccco2)CC3)c1", 6.09],
  ["CCN(CC)c1ccc(C(=O)NCC2(C(N)=O)CCOCC2)cn1", 2.99],
  ["COCCN1CCC(CNC(=O)C2(C#N)CCCC2)CC1", 6.93],
  ["COc1cccc(OCC(=O)NS(=O)(=O)c2ccc(Br)s2)c1", -16.1],
  ["CCOCC(=O)N1C[C@H]2CCC[C@@]2(COC)C1", 0.419],
  ["Cc1nc2ccccc2nc1CN1CCCC1Cn1cncn1 (centres undefined)", -1.28],
  ["COc1ncc(C(=O)N2CCC(c3nc(C)n4ccsc34)CC2)cn1", -17.4],
  ["CC(C)Nc1nc2c(c(N(C)C)n1)CCN(C(=O)c1cc[nH]n1)CC2", 6.59],
  ["CC(C)(C)CCN1CCN(c2snc(Cl)c2C#N)CC1", 38.1],
  ["O=C1CCCC2=Nc3nonc3NC(c3ccccc3F)C12 (centres undefined)", 1.08],
  ["CCC(=O)N1CCN(C(=O)CCn2cccn2)CC1", -2.6],
  ["CSc1nccc(N2CCC(NCc3nc(C)cc(C)n3)CC2)n1", 3.41],
  ["Cc1cc(C)n(CC(=O)N(CC2CN(C)CCO2)c2nccs2)n1 (centres undefined)", -5.85],
  ["CNC(=O)c1sccc1S(=O)(=O)NC", 8.52],
  ["COCC1CCN(c2nc(C(C)(C)C)nc3c2cnn3C)C1 (centres undefined)", -8.44],
  ["Cc1cc(CN2C[C@@H]3COC[C@]3(c3nnc(C)o3)C2)no1", -2.11],
  ["Cc1nn(C)c(C)c1-c1ccc(=O)n(C(C)C(=O)NC2CCCCC2)n1 (centres undefined)", 1.94],
  ["CC[C@H](Cn1ncc2ccccc2c1=O)NC(=O)c1ccccn1", -4.27],
  ["Cc1cc(NCc2cccc(C#N)c2)ccc1Br", 7.99],
  ["Cc1cc(C)n(C2CN(C(=O)CN3C(=O)CSc4ccccc43)C2)n1", -6.53],
  ["CN(Cc1ccc(F)c(F)c1)C(=O)CCc1nc(-c2nnc[nH]2)no1", -43.6],
  ["CN(CCC#N)C(=O)CN(C1CC1)C1CCc2ccccc21 (centres undefined)", -4.74],
  ["Cc1ccc(C)c(S(=O)(=O)NC(=O)COc2cccc(C#N)c2)c1", 9.7],
  ["Cn1cnc2c1CCN(Cc1csc(C3CCCCC3)n1)C2", -3.36],
  ["O=c1[nH]c(CN2CCN(CC(F)(F)F)CC2)nc2ccccc12", 10.2],
  ["Cc1ncsc1C(=O)N1CCCC1c1c(C)nn(C)c1C (centres undefined)", 0.71],
  ["CSc1ccc(C)c(C(=O)N2CCCC(n3cncn3)C2)c1 (centres undefined)", -13.1],
  ["CNc1snc(C)c1C(=O)NC(C)CC(=O)c1cccs1 (centres undefined)", -0.227],
  ["Oc1ccccc1-c1cc(-c2nc(C3CC3)n[nH]2)[nH]n1", 0.45],
  ["Cc1cc(C(F)(F)F)cc(=O)n1CCCn1cnnn1", 1.16],
  ["COc1ccnc(N2CCN(C(=O)Cc3ccc(C)s3)CC2)n1", 0.818],
  ["CN1CCC(N(Cc2ccccc2)C(=O)c2ccn3cncc3c2)CC1", 5.68],
  ["CCOCC1CN(S(C)(=O)=O)Cc2ncn(CC3CC3)c21 (centres undefined)", -12],
  ["N#Cc1ccc(CNc2cccc(C(=O)N3CCOCC3)c2)cc1", -4.34]
]}
